# target or system: SARS-CoV-2 wildtype S1 (SARS-CoV-2 wildtype (Wuhan), UniProt P0DTC2)
quantity measured: binding result

binder | reported
YB13-275 (antibody, V domains shown) V domain 1: QITLKESGPRLVKPTQTLTLTCTFSGFSLATAGMSVGWIRQPPGKALEWLALIYWDDDDRYSPSLKSRLTITKDTSRNQVVLTMTNMDPVDTATYYCIHPRFYSDPSGYYFIWGQGTMVTVSS V domain 2: SYELTQPPSVSVSPGQTARITCSGDALAKQYAYWYQQKPGQAPVQVMYKDGERPSGIPERFSGSKSGTTVTLTISAVQAEDEADYFCQSADNSGFYVFGTGTQVTVL | binds
YB12-187 (antibody, V domains shown) VH: EVQLVESGGGLVKPGGSLRLSCAASGFIFSTYSMNWVRQAPGKGLEWVSSISSFSTYIYYADSVKGRFTISRDNAKNSLYLQMNSLRAEDTAVYYCASGQMYSGSYPSGDYFDYWGQGTLVTVSS VL: LSVLTQPPSVSGAPGQRVTISCTGSSSNIGADYDVHWYQQLPGTAPKLLIYGNTNRPSGVPDRFSGSKSGTSASLAITGLQAEDEAHYYCQSYDTSLSGVVFGGGTKLTVL | binds
YB9-120 (antibody, V domains shown) VH: QVQLQESGPGLVKPSGTLSLTCAVSGGSIRTTKWWSWVRQPPGKGLEWIGEIHHGGNTNYNPSLKSRVTISVDKSKNQFSLKLTSVTAADTAVYYCARDGGGVGTPLEYWGQGTLVTVSS VL: QSGLTQPASVSGSPGQSITISCTGTISDVGAYNYVSWYQQHPGRAPKVVIYDVSERPSGTSNRFSGSKSGNTASLTISGLQAEDEADYYCSSFTNTTPVVFGGGTKLTVL | binds
